B1: library; a variant is named by its letters at N, in order (parent)
chain: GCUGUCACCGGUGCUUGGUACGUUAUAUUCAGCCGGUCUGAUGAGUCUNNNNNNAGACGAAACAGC

- Variants of: B1
- assay.comment: normalized RNA/DNA level with ligand (relative to sTRSVctl = 100) (log10 (% of sTRSVctl)); HEK293T overexpressing SLC46A1; ligand concentration (+) RNA-Seq: 6 mM; higher = less ribozyme self-cleavage, higher mRNA level
- measurement.context: with (6R,S)-folinic acid; ligand present: yes
Label rule, in plain words: normalized RNA/DNA level with ligand (log10) of 2 and up is 1.0, under 2 is 0.0.

Answered examples (3):
>>> answer_label("GCUGUCACCGGUGCUUGGUACGUUAUAUUCAGCCGGUCUGAUGAGUCUGUCACCAGACGAAACAGC")
1.0
>>> answer_label("GCUGUCACCGGUGCUUGGUACGUUAUAUUCAGCCGGUCUGAUGAGUCUGCUGGCAGACGAAACAGC")
0.0
>>> answer_label("GCUGUCACCGGUGCUUGGUACGUUAUAUUCAGCCGGUCUGAUGAGUCUUAAUGGAGACGAAACAGC")
0.0

Prompt line: In plain terms: is recorded normalized RNA/DNA level with ligand (log10) at least 2 for GCUGUCACCGGUGCUUGGUACGUUAUAUUCAGCCGGUCUGAUGAGUCUCCAUCCAGACGAAACAGC ?
Response line: 1.0
